Provenance of the data: PubChem BioAssay AID844

System: MRP1 cells, doxorubicin viability shift, 10 uM compound
Measurement notes: viability protection against doxorubicin, MRP-1 line – cell-based, doxorubicin EC50 shift, dose response (AID 844)
Classify: fulfilled when fold increase in Dox EC50 is strictly less than 0.7; not fulfilled when fold increase in Dox EC50 is not.

>>> class("CN(CC(=O)NCCc1ccc(Cl)cc1)S(=O)(=O)c1ccc2c(c1)c(=O)n(C)c(=O)n2C")
"fulfilled"
>>> class("CCCCCCC(=O)Nc1ccc(C(=O)N/N=C/c2cccnc2)cc1")
"fulfilled"
>>> class("CC(=O)N1CCN=C1SCc1ccc(Cl)cc1")
"not fulfilled"
>>> class("CC(=O)/C(C#N)=C1\\NC(=O)C(Cc2ccc(C)c(C)c2)S1 (stereo unspecified)")
"not fulfilled"
>>> class("NNC(=O)CNC(c1ccccc1)c1cc(Br)ccc1NC(=O)c1cccc(Cl)c1 (stereo unspecified)")
"not fulfilled"

====

System: MRP1 cells, doxorubicin viability shift, 10 uM compound
Measurement notes: viability protection against doxorubicin, MRP-1 line – cell-based, doxorubicin EC50 shift, dose response (AID 844)
Listed next: entries and their corresponding fold increase in Dox EC50.
Property label: fold increase in Dox EC50

>>> experimental_value("COc1ccccc1NC(=O)CSC(N)=O")
0.81
>>> experimental_value("CNC[C@H](O)c1ccc(O)c(O)c1")
0.69
>>> experimental_value("CC(=O)c1ccc(N2CCN(c3ccc(C(F)(F)F)cn3)CC2)cc1")
0.56
>>> experimental_value("Cc1ccc(S(=O)(=O)N2CCC(C(=O)N[C@@H](C)C(=O)Nc3ccc4c(c3)OCO4)CC2)cc1")
1.43
>>> experimental_value("CCC(=O)c1ccc(N2CCOCC2)c(F)c1")
1.32
>>> experimental_value("COc1ccc(N2C(=O)CC(N3CCC(O)(c4cccc(C(F)(F)F)c4)CC3)C2=O)cc1 (centres undefined)")
0.89
>>> experimental_value("Cc1ccc(N2C(=O)NC(=O)/C(=C\\c3ccsc3)C2=O)cc1C")
0.8
>>> experimental_value("C=CCc1c(C)nc(-c2ccccc2)nc1N/N=C(\\C)c1ccc(N)cc1")
1.3
>>> experimental_value("Cc1ccc(C(c2nnnn2CS(=O)(=O)c2ccc(C)cc2)N2CCN(c3ncccn3)CC2)cc1 (centres undefined)")
0.48
>>> experimental_value("COc1cccc(-c2csc(NC(=O)C3CC3)n2)c1")
0.84
>>> experimental_value("Cc1ccc(NC(=O)CSc2nc(O)cc(=O)n2C)cc1")
1.34
>>> experimental_value("Cc1ccc(S(=O)(=O)N2CCN(c3nc(C)c4c(c3C#N)CC(C)(C)OC4)CC2)cc1")
0.72
>>> experimental_value("CC1CCc2c(C(=O)OCC(=O)Nc3cccc(S(=O)(=O)N4CCCCCC4)c3)csc2C1 (centres undefined)")
1.05
>>> experimental_value("Brc1cc2c(cc1COc1ccc(-c3nn[nH]n3)cc1)OCO2")
1.73
>>> experimental_value("CCc1ccc(NC(=O)Cn2c(=O)oc3cc(S(=O)(=O)N4CCOCC4)ccc32)cc1")
1
>>> experimental_value("CC(C)N(Cc1cc2ccccc2[nH]c1=O)C(=O)C(C)(C)C")
1.47
>>> experimental_value("Cc1c(NC(=O)CSc2ccc(Cl)cc2)cccc1-c1nc2ncccc2o1")
0.99
>>> experimental_value("Cc1cc2nc(/N=C(\\N)NC(=O)N3c4ccccc4Sc4ccccc43)nc(C)c2cc1C")
1.69
>>> experimental_value("O=C(NCCC1=CCCCC1)C1CCN(S(=O)(=O)c2cccc3cccnc23)CC1")
0.43
>>> experimental_value("CCn1c(COc2ccc(Cl)cc2)nnc1SCc1nc2ccccc2[nH]1")
0.35
>>> experimental_value("O=C(Nc1ccc(C2CC2(Cl)Cl)cc1)c1ccccc1Br (centres undefined)")
1.6
>>> experimental_value("O=[N+]([O-])c1ccc(O)c(N=Cc2sc3ccccc3c2O)c1")
0.08
>>> experimental_value("Cc1ccc(NC(=O)CCNC(=O)c2ccc(Cl)cc2)cc1F")
1.15
>>> experimental_value("Cn1c(=O)[nH]c(=O)c2c1nc(SCC(=O)Nc1ccccc1)n2Cc1ccccc1")
0.45
>>> experimental_value("O=C(CSc1ncn[nH]1)Nc1ccc(Br)cc1F")
0.98
>>> experimental_value("COc1ccc(-c2c(C#N)c(N)nc3sc(C(=O)c4ccccc4)c(N)c23)cc1")
0.34
>>> experimental_value("Cc1ccsc1CNn1cnnc1SCc1ccc(Cl)cc1")
0.78
>>> experimental_value("COc1ccccc1-c1nnc(SC2CCc3ccccc3NC2=O)s1 (centres undefined)")
0.55
>>> experimental_value("CC(C)OC(=O)CSc1nnc2n1C(C)(C)Cc1ccccc1-2")
0.82
>>> experimental_value("COCC(=O)Nc1nnc(COc2ccc(Cl)cc2)s1")
1.44
>>> experimental_value("COc1ccc(CCNC(=O)CSCc2ccc(Cl)cc2)cc1OC")
0.67
>>> experimental_value("O=C(/C=C/NNC(=O)c1ccccc1)c1ccc(Br)cc1")
0.53
>>> experimental_value("CN(Cc1ccccc1)c1oc(COc2ccccc2F)nc1C#N")
0.66
>>> experimental_value("COc1ccc(/C=N/Nc2cc(OC)ncn2)cc1")
0.57
>>> experimental_value("Cc1cc(C)nc(N/N=C/c2cccc3ccccc23)n1")
1
>>> experimental_value("Cc1ccc(C(=O)CCC(=O)Nc2ccc(Cl)c(S(=O)(=O)Nc3cccc(Cl)c3)c2)cc1")
1.15
>>> experimental_value("CC1(C)Cc2c(sc3nnn(Cc4ccc(Cl)cc4)c(=O)c23)CO1")
0.85
>>> experimental_value("O=C1N=C(c2ccccc2)S/C1=C\\c1cccs1")
1.2
>>> experimental_value("COc1ccc(C(=O)Nc2ccccc2Cc2ccccc2)c(OC)c1")
0.66
>>> experimental_value("O=C(Nc1nc(=O)n(C(=O)C2CC2)s1)c1ccccc1")
0.55
>>> experimental_value("CCSC(C)CC1C/C(=N/O)c2c(CC)noc2C1 (centres undefined)")
1.27
>>> experimental_value("COc1ccc(-n2ncc3c(=O)n(CC(=O)N4c5ccccc5CC4C)cnc32)cc1 (centres undefined)")
0.82
>>> experimental_value("CC1(C)O[C@@H]2C[C@H]3[C@@H]4CCC5=CC(=O)C=C[C@]5(C)[C@@]4(F)[C@@H](O)C[C@]3(C)[C@]2(C(=O)CO)O1")
0.62
>>> experimental_value("COC(=O)C1C(=O)c2c([nH]c(C(=O)OC3CCCCC3)c2C)CC1C (centres undefined)")
0.69
